# Assayed Target: T1, Anti-HBsAg antibody(g)
# T1 construct: also called anti-HBsAg antibodies from goats; goat IgG (HBsAg)
# Assay Details: labelled peptide on antibody immobilised on microplate; antigen HBsAg
Ends that are not written are not given here. FAM = carboxyfluorescein (FAM) fluorescent label
Listed binders paired with reported fluorescence intensity at bottom (B) of microplate after antigen binding
Property Measured: fluorescence intensity at bottom (B) of microplate after antigen binding

>>> result_number("VYYCAREPTGTGIYFDVWGK (not fully specified (N-terminus), Synthetic 20-mer homologous to the FR3 or FR4 region of the heavy chain; The label differs between experiments; also called H2 switching peptide; fourth peptide compound H2) [H2 peptide]")
18800
>>> result_number("{FAM}-VYYCFQGSHVPFTK (Synthetic 14-mer homologous to the FR3 or FR4 region of the light chain; also called L2 switching peptide; second peptide compound L2) [L2 peptide]")
9860
>>> result_number("TYLEWYPQKPGQSPKLLIYK (not fully specified (N-terminus), Synthetic 20-mer homologous to the FR2 region of the light chain; The label differs between experiments; also called L1 switching peptide; first peptide compound L1) [L1 peptide]")
5390
>>> result_number("SYWIHWVKQRPGQGLEWIGE (not fully specified (N-terminus), Synthetic 20-mer homologous to the FR2 region of the heavy chain; The fluorescent label differs between experiments; also called H1 switching peptide; third peptide compound H1) [H1 peptide]")
4620
